assay remarks: Single-dose pharmacokinetics in mice (plasma and brain, UPLC-TSQ/MS)
Format: in vivo, C57BL/6J mice
experimental parameters: male, C57BL/6J, mouse, brain homogenate, po, 40 mg/kg, p.o. 40 mg/kg
metric name: Cmax (ng/mL)

>>> assay_result("CCN(C)C(=O)Oc1cccc(/C=C2\\Cc3cc(OC)c(OC)cc3C2=O)c1")
95.4

---

assay remarks: Single-dose pharmacokinetics in mice (plasma and brain, UPLC-TSQ/MS)
Type: in vivo, C57BL/6J mice
experimental parameters: male, C57BL/6J, iv; plasma, i.v. 10 mg/kg, mouse
metric name: AUC(0-inf) (ng·h/mL)

>>> assay_result("CCN(C)C(=O)Oc1cccc(/C=C2\\Cc3cc(OC)c(OC)cc3C2=O)c1 [AP5]")
2700

Where do the numbers come from? From paper PMC9289467.
